# Tested on: HS 578T breast
# experiment_description: NCI tumour cell line growth inhibition, 48 h; in the data active means GI50 below about 0.43 µM; inactive means the rest
Choose one outcome from this list and give only that: yes = active, no = inactive

Sample answers from the record:
- CC(C)(C)n1cc(-c2ccnc(NCCCNS(=O)(=O)c3ccc(Br)cc3)c2)c(-c2cccc(O)c2)n1: no
- CC[C@]1(O)C[C@@H]2CN(CCc3c([nH]c4ccccc34)[C@@](C(=O)OC)(c3cc4c(cc3OC)N(C)[C@H]3[C@@](O)(C(N)=O)[C@H](O)[C@]5(CC)[C@@H]6C[C@@H]6CN6CC[C@]43[C@@H]65)C2)C1: yes
- CCCCNC(=O)Oc1ccc(/C(=C(/CC)Cc2ccccc2)c2ccc(OCCN3CCCCCC3)cc2)cc1: no
- CCN(CC)CCOc1c(OC)c(Br)cc2c(C)c(C(=O)OC)oc12: no

In the following, a different compound is considered.
For CNCCNc1nc2ccccc2c2c(=O)c3cc(OC)ccc3sc12 , which call appears in the assay record?
no

###

# Tested on: MCF7 breast
# experiment_description: NCI tumour cell line growth inhibition, 48 h; in the data active = GI50 below about 0.43 µM; inactive = the rest
Choose one outcome from this list and give only that: active, inactive

Sample answers from the record:
• C[C@]12CC[C@@H](OC(=O)N(CCCl)N=O)C[C@@H]1CC[C@@H]1[C@@H]2CC[C@]2(C)C(=O)CC[C@@H]12 = inactive
• CCCCN(CC)c1ncnc2ccc(Br)cc12 = inactive
• CCOC(=O)Nc1nc2cc(OCC)ccc2s1 = inactive

For CCCCCCNC(=O)n1cc(F)c(=O)[nH]c1=O , which call appears in the assay record?
inactive

For Cc1nn(CNc2ccccc2C(F)(F)F)c(=S)n1/N=C/c1ccc(F)cc1 , which call appears in the assay record?
inactive

For Cn1cc(C2=C(c3cn(C)c4cc(N)ccc34)C(=O)NC2=O)c2ccccc21 , which call appears in the assay record?
inactive

For N=c1ccc2nc3c(cc(N)c4ccccc43)oc-2c1 , which call appears in the assay record?
active

For C/C(=N\NC(=S)N1CCN(c2ccccn2)CC1)c1nccs1 , which call appears in the assay record?
active

For COC(=O)c1ccc(CN2C(=O)C(Cl)=C(Nc3ccc(OC)c(Cl)c3)C2=O)cc1 , which call appears in the assay record?
inactive

###

# Tested on: NCI-H23 lung
# experiment_description: NCI tumour cell line growth inhibition, 48 h; in the data active = GI50 below about 0.43 µM; inactive = the rest
Choose one outcome from this list and give only that: t (active), f (inactive)

Sample answers from the record:
- CC[C@H](Nc1nc(N)nc(C2CC2)c1C#N)c1nc2cccc(NCc3ccc(C(=O)NO)cc3)c2c(=O)n1-c1ccccc1: f
- COc1ccc(/C=C\c2cc(OC)c(OC)c(OC)c2)c(NS(=O)(=O)c2ccc(Cl)cc2)c1O: t
- COc1ccc([C@@H](O)c2cc(-c3ncnc4cc(N5CCOCC5)ccc34)c(F)cc2Cl)nn1: f

For CC12CC=CCC1CCC1C2CCC2(C)C(c3ccc(=O)oc3)CCC12O (centres undefined) , which call appears in the assay record?
t

For C/C(=C(/c1ccc(O)cc1)c1ccc(Cl)cc1)c1ccccc1 , which call appears in the assay record?
f

###

TGI: recorded values
# Test system: MALME-3M melanoma
# experiment_description: NCI tumour cell line growth inhibition, 48 h
*1 amine or outer side, *2 acyl side, *3 side chain or, on linkers, in order; H or OH if unused. Where a SMILES comes first, the peptide text is derived from it. Bridges are numbered along the chain shown (N, C = ends). [ ]: non-standard residue; d: D form. ξ: configuration not given here. X35 = CC[C@H](C)[C@@H](N[*:1])[C@@H](O)CC(=O)O[C@H](C(=O)[C@H](C)C(=O)[*:2])C(C)C; NMeY = CN[C@@H](Cc1ccc(O)cc1)C(=O)O; dNMeL = CN[C@H](CC(C)C)C(=O)O; ξΔPro = O=C(O)C1C=CCN1

The reported TGI of the molecule CC(=O)Nc1ccc(/C=C2/NC(=S)N(/C=C3\C(=O)Oc4ccccc4C3=O)C2=O)cc1 was > 100000 nM

The reported TGI of the molecule COc1cc2c(cc1OC)C(=O)/C(=C/c1ccc(O)cc1)CC2 was > 10000 nM

The reported TGI of the molecule CC1(C)[C@@H](OC(N)=O)C=C[C@]2(CO)[C@H]3CC[C@]4(C)[C@@H](c5ccc(=O)oc5)[C@@H](Cl)C[C@]4(O)C3=CC[C@@H]12 was 5.24 nM

The reported TGI of the molecule CC[C@H](C)[C@H]1NC(=O)[C@@H](NC(=O)[C@@H](CC(C)C)N(C)C(=O)C2C=CCN2)[C@@H](C)OC(=O)[C@H](Cc2ccc(OC)cc2)N(C)C(=O)[C@@H]2CCCN2C(=O)[C@H](CC(C)C)NC(=O)[C@@H](C)C(=O)[C@H](C(C)C)OC(=O)C[C@@H]1O (stereo partly drawn) (H-[ξΔPro][dNMeL]T[X35]LP[NMeY](Me); ester 3-C) was 14.6 nM

The reported TGI of the molecule Cc1ccc(/C=N\NC(=O)c2ccncc2)s1 was > 100000 nM

###

# Tested on: SN12C renal
# experiment_description: NCI tumour cell line growth inhibition, 48 h
TGI: recorded values

* C/C(=N\NC(=S)N1CCN(c2ccccn2)CC1)c1nccs1 | 15.9 µM

The reported TGI of the compound C[C@]12CC[C@@H](OC(=O)N(CCCl)N=O)C[C@@H]1CC[C@@H]1[C@@H]2CC[C@]2(C)C(=O)CC[C@@H]12 was 23.3 µM

The reported TGI of the compound COC(=O)C(=O)C(C(=O)C(N)=O)c1nc2ccc(C(=O)c3ccccc3)cc2[nH]c1=O (stereo unspecified) was > 100 µM

The reported TGI of the compound COc1ccccc1NC(=O)C1=C(C)NC(C)=C(C(=O)Nc2ccccc2OC)C1c1ccc(N(C)C)cc1 was > 100 µM

The reported TGI of the compound N=c1ccc2nc3c(cc(N)c4ccccc43)oc-2c1 was 0.801 µM

The reported TGI of the compound CCN(CCCl)c1cccc(NC(=O)c2ccc(C(=O)Nc3cccc(CN(C)C)c3)cc2)c1 was 2.44 µM

The reported TGI of the compound NNS(=O)(=O)c1cc(C(=O)O)cc(C(=O)O)c1 was > 100 µM

###

# System: DMS 114 small cell lung
# experiment_description: NCI tumour cell line growth inhibition, 48 h
property_name: TGI (µM)
Lab book: enter the figure in µM, no units written.

* COc1ccc(N2C(=O)C3c4[nH]c5ccccc5c4C4CCCCCCC4C3C2=O)cc1 (stereo not drawn) | 28

The reported TGI of the compound COc1ccccc1NC(=O)C1=C(C)NC(C)=C(C(=O)Nc2ccccc2OC)C1c1ccc(N(C)C)cc1 was 65.6

The reported TGI of the compound Cc1c(C(=O)CC(=O)C(=O)Nc2cc(Cl)ccc2Cl)[n+](=O)c2ccccc2n1[O-] was 61.3

The reported TGI of the compound COC(=O)C(CC(=O)c1c[nH]c2ccccc12)c1c[nH]c2ccccc12 (stereo not drawn) was 39.4

The reported TGI of the compound C/C(=N\NC(=S)N1CCN(c2ccccn2)CC1)c1nccs1 was 0.649

The reported TGI of the compound O=C1C(Cl)=C(c2ccc([N+](=O)[O-])cc2)C(=O)c2c(O)cccc21 was 0.786

The reported TGI of the compound CCN(CC)CCCC(C)Nc1cc(-c2ccccc2)nc2cc(OC)ccc12 (stereo not drawn) was 21.8

###

# Test system: SF-539 CNS
# experiment_description: NCI tumour cell line growth inhibition, 48 h
GI50: recorded values

- CCOC(=O)Nc1nc2cc(OCC)ccc2s1: > 100 µM
- CCN(CC)CCOc1c(OC)c(Br)cc2c(C)c(C(=O)OC)oc12: 1.47 µM
- COc1cc(/C=C2\CC3C4CC=C5C[C@@H](O)CC[C@]5(C)C4CC[C@]3(C)C2=O)ccc1OCCCn1ccnc1 (some centres undefined): 15.7 µM

Now consider the entry below.
The reported GI50 of the compound CCCCN(CCCC)CCc1c(C)cc(C)c(CCN(CCCC)CCCC)c1O was 3.51 µM

###

# Test system: KM12 colon
# experiment_description: NCI tumour cell line growth inhibition, 48 h
property_name: TGI

Worked cases, answers included:
* Oc1c(CN2CCCC2)cc(CSCc2ccccc2)c2cccnc12 | 11.9 µM
* CC1(C)[C@@H](OC(N)=O)C=C[C@]2(CO)[C@H]3CC[C@]4(C)[C@@H](c5ccc(=O)oc5)[C@@H](Cl)C[C@]4(O)C3=CC[C@@H]12 | 0.0268 µM
* CCOC(=O)c1c(-c2ccccc2)c(C(OC(c2ccccc2)c2c(-c3ccccc3)c(C(=O)OCC)n3ccccc23)c2ccccc2)c2ccccn12 (centres undefined) | > 100 µM
* CCCCNC(=O)Oc1ccc(/C(=C(/CC)Cc2ccccc2)c2ccc(OCCN3CCCCCC3)cc2)cc1 | > 100 µM

Observed TGI on KM12 colon, entry Cc1cc(=O)oc2cc(OC(=O)N(CCCl)CCCl)ccc12 , equals > 100 µM

Observed TGI on KM12 colon, entry C/C(=N/NC(=S)N1CCN(C(=S)N/N=C(/C)c2ccccn2)CC1)c1ccccn1 , equals > 100 µM

Observed TGI on KM12 colon, entry O=C1c2ccccc2C(=O)c2nn(N=P(CP(=Nn3nc4c(n3)C(=O)c3ccccc3C4=O)(c3ccccc3)c3ccccc3)(c3ccccc3)c3ccccc3)nc21 , equals > 100 µM

Observed TGI on KM12 colon, entry NC1c2c(Cl)sc(Cl)c2C(=O)C1O (centres undefined) , equals > 100 µM

Observed TGI on KM12 colon, entry C/C(=N\NC(=S)N1CCN(c2ccccn2)CC1)c1nccs1 , equals 18.9 µM

Source listed as PubChem BioAssay (NCI).
